target_desc: Rac GTPase-activating protein 1 (Homo sapiens) (UniProt Q9H0H5)
Sequence (Q9H0H5 whole entry, looked up): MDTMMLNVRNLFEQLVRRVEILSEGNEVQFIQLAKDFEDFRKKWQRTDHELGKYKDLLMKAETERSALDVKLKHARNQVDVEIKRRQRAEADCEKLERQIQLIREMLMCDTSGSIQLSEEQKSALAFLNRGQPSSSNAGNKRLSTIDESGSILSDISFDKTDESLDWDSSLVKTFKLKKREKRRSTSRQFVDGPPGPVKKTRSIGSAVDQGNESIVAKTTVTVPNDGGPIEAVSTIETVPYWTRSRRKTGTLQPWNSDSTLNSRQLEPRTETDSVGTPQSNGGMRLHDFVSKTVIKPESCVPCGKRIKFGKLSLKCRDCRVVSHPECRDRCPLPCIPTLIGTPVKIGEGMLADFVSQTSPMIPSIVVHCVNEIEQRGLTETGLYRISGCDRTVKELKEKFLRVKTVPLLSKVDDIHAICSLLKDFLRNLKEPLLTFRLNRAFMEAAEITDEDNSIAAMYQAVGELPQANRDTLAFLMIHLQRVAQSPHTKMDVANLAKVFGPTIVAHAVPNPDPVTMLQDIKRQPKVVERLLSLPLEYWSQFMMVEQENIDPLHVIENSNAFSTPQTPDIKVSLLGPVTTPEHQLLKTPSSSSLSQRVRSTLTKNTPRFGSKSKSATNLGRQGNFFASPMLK
test_name: blockers of MgcRacGAP-driven Rac1 GTP hydrolysis – biochemical, ADP Hunter fluorescence, primary and confirmatory, confirmation (AID 624330);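 also: fluorescence reports GDP produced by GAP-driven GTP hydrolysis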
experimental_parameters: MgcRacGAP-stimulated Rac1 GTP hydrolysis, at 30 µM, active compounds read high, GST-tagged Rac1 F28L mutant substrate
The whole screen tested about 340,000 compounds, of which about 2,100 (0.62%) were called active. Only a sample is shown. Entries with a potency or affinity are not part of this list.
reported_endpoint: inhibition (%)
// units = %; emit number, no label

These recorded examples may help you get a feel for the data.
compound	target_desc	u	result_value
CC1CC(C)CN(S(=O)(=O)c2ccc(C(=O)Nc3sccc3C(N)=O)cc2)C1 (stereo unspecified)	Rac GTPase-activating protein 1 (Homo sapiens) (UniProt Q9H0H5)	%	3.38
CN(Cc1ccccc1)c1nc2c(c(=O)[nH]c(=O)n2C)n1CCOc1ccccc1	Rac GTPase-activating protein 1 (Homo sapiens) (UniProt Q9H0H5)	%	13.5
O=C1CCCCCN1Cc1ccccc1	Rac GTPase-activating protein 1 (Homo sapiens) (UniProt Q9H0H5)	%	3.56
O=C(C[C@@H]1C/C=C\C[C@H](NC(=O)OCC2c3ccccc3-c3ccccc32)C(=O)OC[C@H]2CCCN2C1=O)NCCO	Rac GTPase-activating protein 1 (Homo sapiens) (UniProt Q9H0H5)	%	5.33
CCc1cc(C(=O)OC)c(NC(=O)CC2NCCNC2=O)s1 (stereo unspecified)	Rac GTPase-activating protein 1 (Homo sapiens) (UniProt Q9H0H5)	%	0.55

Query block: Which inhibition value belongs to COC(=O)c1cc(S(=O)(=O)NC2CCC(C)CC2)cn1C (stereo unspecified) ?
Result block: 0.48

Query block: Queued: O=C(Oc1ccccc1)c1cc2ccccc2oc1=O
Result block: -4.44

Query block: Queued: O=C(CCC(=O)c1cccs1)NCc1ccncc1
Result block: 8.09

Query block: Queued: COc1ccc(NC(=O)c2cc3cc(OC)ccc3oc2=O)cc1
Result block: 7.32

Query block: Queued: COc1cccc2cc(C(C)=O)c(=O)oc12
Result block: -3.65

Query block: Queued: COc1ccc(NC(=O)c2cc3ccccc3oc2=O)cc1
Result block: 20.1

* * *

inhibition values for the molecules below.
target_desc: Rac GTPase-activating protein 1 (Homo sapiens) (UniProt Q9H0H5)
test_name: blockers of MgcRacGAP-driven Rac1 GTP hydrolysis – biochemical, ADP Hunter fluorescence, primary and confirmatory, confirmation (AID 624330);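 also: fluorescence reports GDP produced by GAP-driven GTP hydrolysis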
experimental_parameters: MgcRacGAP-stimulated Rac1 GTP hydrolysis, at 30 µM, active compounds read high, GST-tagged Rac1 F28L mutant substrate
Among all 340,000 compounds or so, about 2,100 (0.62%) were called active. Not all results are given here. Potency and affinity values are given separately.
// units = %; emit number, no label

molecule	u	inhibition
COc1ccc(CNC(=O)Cn2cc3c(n2)CCCCC3)cc1	%	7.34

Query block: Please state recorded inhibition (tested on Rac GTPase-activating protein 1 (Homo sapiens) (UniProt Q9H0H5)) of O=S(=O)(Nc1cccc(S(=O)(=O)N2CCOCC2)c1)c1ccc(Cl)s1
Result block: -0.61

Query block: Queued: Cc1sc2ncn(CC(=O)N3CCN(c4ccccc4F)CC3)c(=O)c2c1S(=O)(=O)N1CCOCC1
Result block: 2.91

Query block: Queued: O=C1/C(=C\c2ccc(O)cc2)SC(=S)N1Cc1ccccc1
Result block: 10.6
